For each entry below, report its Z repl 1 value.
target: tau (Homo sapiens, UniProt P10636); assay: MCE Phenols Library screening, tau biosensor cell seeding assay (AvZ); type: cell-based; conditions: Z score, replicate 1
Sequence (P10636 623-695 limits assumed): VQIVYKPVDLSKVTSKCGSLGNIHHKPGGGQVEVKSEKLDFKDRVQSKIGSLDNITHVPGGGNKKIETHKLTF

Please review the entries below; each comes with its answer.
query: Could you please provide reported Z repl 1 for O=c1cc(-c2ccc(O)cc2)oc2c([C@@H]3O[C@H](CO)[C@@H](O[C@@H]4O[C@H](CO)[C@@H](O)[C@H](O)[C@H]4O)[C@H](O)[C@H]3O)c(O)cc(O)c12 [Vitexin-4''-O-glucoside] ? Thanks!
result: 0.632

query: Could you please provide reported Z repl 1 for O=C(O)[C@H]1O[C@@H](Oc2cc(O)c3c(=O)cc(-c4ccccc4)oc3c2)[C@H](O)[C@@H](O)[C@@H]1O [Chrysin-7-O-glucuronide] ? Thanks!
result: 0.79

I would be grateful if you could provide Z repl 1 for each of the following entries.
1. Cc1cc(O)c2c(=O)c3c(O)cc(O)c4c5c(O)cc(O)c6c(=O)c7c(O)cc(C)cc7c(c65)c(c2c1)c34
2. CC(=O)CCc1ccc(O)cc1
3. COc1cc(CCO)ccc1O
4. COc1c(O)cc2oc(-c3ccccc3)cc(=O)c2c1O
5. COc1ccc(-c2oc3cc(O)cc(O)c3c(=O)c2O)cc1 [Kaempferide]
6. C=CCc1cc(OC)c(O[C@@H](C)[C@H](O)c2ccc(O)c(OC)c2)c(OC)c1

result:
1: -0.657; 2: 0.027; 3: -0.272; 4: -0.11; 5: -0.102; 6: 1.234

Cited source for all entries: paper PMC11784839
